B1: MLL5 (parent)
chain: EQIAERKRKMVSWEASSLGLVTAA

- Variants of: B1
- EXPERIMENTAL_DETAILS: protein stability index of a GFP-peptide fusion (GPS, HEK-293T) (PSI 1-6); higher = more stable;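 further: lentivirally expressed fusions sorted by FACS into six bins by GFP to DsRed ratio, PSI derived from sequencing read proportions per bin multiplied by bin number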
- ASSAY_CONDITIONS: c terminus: a fixed tail appended
Documented protein stability index across a set of variants

V11Y 3.14
K9A 2.52
R6L 2.65
E1V 2.55
A15Q 2.93

variant A24F , protein stability index observed: 2.29

variant A15I , protein stability index observed: 2.56

variant T22V , protein stability index observed: 3.58

variant G19A , protein stability index observed: 2.1

variant A15C , protein stability index observed: 2.28

variant A15N , protein stability index observed: 2.67

variant L20C , protein stability index observed: 3.71

variant K7Q , protein stability index observed: 3.21

variant L18N , protein stability index observed: 3.52

variant E14I , protein stability index observed: 2.22

variant R8I , protein stability index observed: 2.66

variant L20I , protein stability index observed: 3.77

variant S16W , protein stability index observed: 1.77

variant T22N , protein stability index observed: 3.21

variant E5Q , protein stability index observed: 2.79

variant S16A , protein stability index observed: 3.11

variant V21E , protein stability index observed: 2.73

variant S12L , protein stability index observed: 2.37
